// data source = the supplement of paper PMC6757056

B1: library; a variant is named by its letters at N, in order (parent)
chain: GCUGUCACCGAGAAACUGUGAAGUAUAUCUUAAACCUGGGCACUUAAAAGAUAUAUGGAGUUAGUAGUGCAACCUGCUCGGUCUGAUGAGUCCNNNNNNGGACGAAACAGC

variants of: B1; experiment: FACS-Seq fitted mean relative fluorescence mCherry/BFP with ligand (log10 relative fluorescence); HEK293T; ligand: cyclic di-GMP (c-di-GMP-II aptamer); ligand concentration (+) FACS-Seq: 1 mM; higher = higher reporter protein expression; details: ligand present: yes
Given measured FACS-Seq fitted mean (log10), output True if it is greater than or equal to -0.02 and False if not.

# Variant description, Assigned label
measured = [
    ("CCUGGC", "False"),
    ("ACAGAG", "False"),
    ("AGUUAG", "False"),
    ("UCCCGU", "True"),
    ("CGGUGA", "True"),
    ("CACGAA", "True"),
    ("CCACUA", "False"),
    ("GCCAGG", "False"),
    ("ACAAGC", "False"),
    ("UGGACU", "False"),
    ("CUAGAC", "True"),
    ("GCUUCA", "True"),
    ("GAAAAA", "False"),
    ("CCAAUA", "False"),
    ("AUAAUU", "False"),
    ("CCGGUU", "True"),
    ("CGUGAA", "False"),
    ("CGGCUU", "False"),
    ("CAGACU", "True"),
    ("CGUAUA", "False"),
    ("CCGGAA", "False"),
    ("CGGAGC", "True"),
    ("AGAAAC", "True"),
    ("CUACAC", "True"),
    ("CACGCA", "True"),
    ("UCAAAA", "False"),
    ("GUAGUA", "False"),
    ("GAAAGA", "True"),
    ("AAACUC", "False"),
    ("CAACAA", "True"),
    ("UAAAAG", "False"),
    ("AGUGCC", "True"),
    ("CUGCGG", "True"),
    ("GUGGUA", "False"),
    ("CGAGAA", "True"),
    ("UCACGU", "True"),
    ("AUACGA", "False"),
    ("UGUGGG", "False"),
    ("AAGAUA", "False"),
    ("AUGUGU", "False"),
    ("UACUAU", "True"),
    ("CCAGUA", "True"),
    ("GAAAAG", "False"),
    ("AGCCAA", "True"),
    ("AUUUAA", "False"),
    ("CGGUUA", "False"),
    ("GAGAUU", "False"),
    ("GCAUGU", "False"),
    ("GUUUUG", "True"),
    ("AGCAGC", "False"),
    ("UCGGUA", "False"),
    ("CGGGAG", "False"),
    ("CCAAAU", "False"),
    ("GCCGGU", "True"),
    ("CUGUAU", "True"),
    ("UAACGC", "True"),
    ("GUUUUU", "False"),
    ("UCGAGA", "False"),
    ("AAAGUC", "True"),
    ("AAUAAA", "False"),
    ("UGCAAU", "False"),
    ("CCCAGA", "True"),
    ("ACUAAG", "False"),
    ("ACGUAU", "False"),
    ("AGACAA", "True"),
    ("GGAGGC", "True"),
    ("CCGGCU", "True"),
    ("GCGUGA", "True"),
    ("GCUCUA", "True"),
]
